test system: LU99A; experiment: relative viability (nuclei count vs DMSO), 5 days (fraction); higher = more cells survive; conditions: first compound 5 µM
Would you mind telling me the reported relative viability of each entry?
Respond numerically, and do not add a unit to the figure.

Given O=C(O)CCCCC(CCSCc1ccccc1)SCc1ccccc1 (stereo not drawn) [CPI-613] + Nc1ncn([C@H]2C[C@H](O)[C@@H](CO)O2)c(=O)n1 [Decitabine] (partner 2 µM) , respond with its relative viability.
0.886

Given O=C(O)CCCCC(CCSCc1ccccc1)SCc1ccccc1 (stereo not drawn) [CPI-613] + COc1cccc2cc(-c3nc([C@H]4CC[C@H](C(=O)O)CC4)n4ncnc(N)c34)[nH]c12 [OSI-027] (partner 0.5 µM) , respond with its relative viability.
0.29

Given O=C(O)CCCCC(CCSCc1ccccc1)SCc1ccccc1 (stereo not drawn) [CPI-613] + C[C@]1(O)C[C@@H](c2nc(-c3ccc4ccc(-c5ccccc5)nc4c3)c3c(N)nccn32)C1 [Linsitinib] (partner 1 µM) , respond with its relative viability.
0.519

* * *

tested on: NCI-H650; experiment: relative viability (nuclei count vs DMSO), 5 days (fraction); higher = more cells survive; conditions: first compound 0.002 µM
Reported endpoint: relative viability
Respond numerically, and do not add a unit to the figure.

Given CC(=O)O[C@@]12CO[C@@H]1C[C@H](O)[C@@]1(C)C(=O)[C@H](O)C3=C(C)[C@@H](OC(=O)[C@H](O)[C@@H](NC(=O)OC(C)(C)C)c4ccccc4)C[C@@](O)([C@@H](OC(=O)c4ccccc4)[C@H]21)C3(C)C [Docetaxel] + N=C(N)NC(=N)NCCc1ccccc1 [Phenformin] (partner 250 µM) , respond with its relative viability.
0.332

Given CC(=O)O[C@@]12CO[C@@H]1C[C@H](O)[C@@]1(C)C(=O)[C@H](O)C3=C(C)[C@@H](OC(=O)[C@H](O)[C@@H](NC(=O)OC(C)(C)C)c4ccccc4)C[C@@](O)([C@@H](OC(=O)c4ccccc4)[C@H]21)C3(C)C [Docetaxel] + CS(=O)(=O)CCNCc1ccc(-c2ccc3ncnc(Nc4ccc(OCc5cccc(F)c5)c(Cl)c4)c3c2)o1 [Lapatinib] (partner 2 µM) , respond with its relative viability.
0.307

Given CC(=O)O[C@@]12CO[C@@H]1C[C@H](O)[C@@]1(C)C(=O)[C@H](O)C3=C(C)[C@@H](OC(=O)[C@H](O)[C@@H](NC(=O)OC(C)(C)C)c4ccccc4)C[C@@](O)([C@@H](OC(=O)c4ccccc4)[C@H]21)C3(C)C [Docetaxel] + CC(C)C[C@H](NC(=O)[C@H](Cc1ccccc1)NC(=O)c1cnccn1)B(O)O [Bortezomib] (partner 0.002 µM) , respond with its relative viability.
0.309

Given CC(=O)O[C@@]12CO[C@@H]1C[C@H](O)[C@@]1(C)C(=O)[C@H](O)C3=C(C)[C@@H](OC(=O)[C@H](O)[C@@H](NC(=O)OC(C)(C)C)c4ccccc4)C[C@@](O)([C@@H](OC(=O)c4ccccc4)[C@H]21)C3(C)C [Docetaxel] + C[C@@H](Oc1cc(-c2cnn(C3CCNCC3)c2)cnc1N)c1c(Cl)ccc(F)c1Cl [Crizotinib] (partner 1 µM) , respond with its relative viability.
0.253

* * *

test system: NCI-H2085; assay: relative viability (nuclei count vs DMSO), 5 days (fraction); higher = more cells survive; conditions: first compound 0.04 µM
Reported endpoint: relative viability

Given Cc1sc2c(c1C)C(c1ccc(Cl)cc1)=N[C@@H](CC(=O)OC(C)(C)C)c1nnc(C)n1-2 [JQ1] + COc1cc2c(Oc3ccc(NC(=O)C4(C(=O)Nc5ccc(F)cc5)CC4)cc3F)ccnc2cc1OCCCN1CCOCC1 [Foretinib] (partner 0.25 µM) , respond with its relative viability.
0.855

Given Cc1sc2c(c1C)C(c1ccc(Cl)cc1)=N[C@@H](CC(=O)OC(C)(C)C)c1nnc(C)n1-2 [JQ1] + CC1(C)CCC(c2ccc(Cl)cc2)=C(CN2CCN(c3ccc(C(=O)NS(=O)(=O)c4ccc(N[C@H](CCN5CCOCC5)CSc5ccccc5)c(S(=O)(=O)C(F)(F)F)c4)cc3)CC2)C1 [Navitoclax] (partner 0.5 µM) , respond with its relative viability.
1.08

Given Cc1sc2c(c1C)C(c1ccc(Cl)cc1)=N[C@@H](CC(=O)OC(C)(C)C)c1nnc(C)n1-2 [JQ1] + Nc1ncn([C@H]2C[C@H](O)[C@@H](CO)O2)c(=O)n1 [Decitabine] (partner 2 µM) , respond with its relative viability.
0.538

Given Cc1sc2c(c1C)C(c1ccc(Cl)cc1)=N[C@@H](CC(=O)OC(C)(C)C)c1nnc(C)n1-2 [JQ1] + Cc1cc(Nc2cc(N3CCN(C)CC3)nc(Sc3ccc(NC(=O)C4CC4)cc3)n2)n[nH]1 [Tozasertib] (partner 0.1 µM) , respond with its relative viability.
0.761

Given Cc1sc2c(c1C)C(c1ccc(Cl)cc1)=N[C@@H](CC(=O)OC(C)(C)C)c1nnc(C)n1-2 [JQ1] + O=C(CCCCCCC(=O)Nc1ccccc1)NO [Vorinostat] (partner 1 µM) , respond with its relative viability.
0.769

* * *

Would you mind telling me the reported relative viability of each entry?
tested on: LXF-289; assay: relative viability (nuclei count vs DMSO), 5 days (fraction); higher = more cells survive; conditions: first compound 0.04 µM

Given Cc1sc2c(c1C)C(c1ccc(Cl)cc1)=N[C@@H](CC(=O)OC(C)(C)C)c1nnc(C)n1-2 [JQ1] + CC(C)C[C@H](NC(=O)[C@H](Cc1ccccc1)NC(=O)c1cnccn1)B(O)O [Bortezomib] (partner 0.002 µM) , respond with its relative viability.
0.977

Given Cc1sc2c(c1C)C(c1ccc(Cl)cc1)=N[C@@H](CC(=O)OC(C)(C)C)c1nnc(C)n1-2 [JQ1] + O=C(CCCCCCC(=O)Nc1ccccc1)NO [Vorinostat] (partner 1 µM) , respond with its relative viability.
0.765

Given Cc1sc2c(c1C)C(c1ccc(Cl)cc1)=N[C@@H](CC(=O)OC(C)(C)C)c1nnc(C)n1-2 [JQ1] + C[C@@H](Oc1cc(-c2cnn(C3CCNCC3)c2)cnc1N)c1c(Cl)ccc(F)c1Cl [Crizotinib] (partner 1 µM) , respond with its relative viability.
0.84

* * *

tested on: NCI-H322M; assay: relative viability (nuclei count vs DMSO), 5 days (fraction); higher = more cells survive; details: first compound 15.81 µM
Note to self: use fulfilled only for relative viability readings below 0.5; a reading exactly at 0.5 still gets not fulfilled.

Is it true that relative viability reported for O=C(O)CCCCC(CCSCc1ccccc1)SCc1ccccc1 (stereo unspecified) [CPI-613] + COc1cc2c(Oc3ccc(NC(=O)C4(C(=O)Nc5ccc(F)cc5)CC4)cc3F)ccnc2cc1OCCCN1CCOCC1 [Foretinib] (partner 0.25 µM) is less than 0.5?
not fulfilled

Is it true that relative viability reported for O=C(O)CCCCC(CCSCc1ccccc1)SCc1ccccc1 (stereo unspecified) [CPI-613] + CS(=O)(=O)N1CCN(Cc2cc3nc(-c4cccc5[nH]ncc45)nc(N4CCOCC4)c3s2)CC1 [Pictilisib] (partner 1 µM) is less than 0.5?
fulfilled

Is it true that relative viability reported for O=C(O)CCCCC(CCSCc1ccccc1)SCc1ccccc1 (stereo unspecified) [CPI-613] + CS(=O)(=O)CCNCc1ccc(-c2ccc3ncnc(Nc4ccc(OCc5cccc(F)c5)c(Cl)c4)c3c2)o1 [Lapatinib] (partner 2 µM) is less than 0.5?
fulfilled

Is it true that relative viability reported for O=C(O)CCCCC(CCSCc1ccccc1)SCc1ccccc1 (stereo unspecified) [CPI-613] + CCNC(=O)c1noc(-c2cc(C(C)C)c(O)cc2O)c1-c1ccc(CN2CCOCC2)cc1 [Luminespib] (partner 0.01 µM) is less than 0.5?
not fulfilled

Is it true that relative viability reported for O=C(O)CCCCC(CCSCc1ccccc1)SCc1ccccc1 (stereo unspecified) [CPI-613] + CC(=O)Nc1cccc(-n2c(=O)n(C3CC3)c(=O)c3c(Nc4ccc(I)cc4F)n(C)c(=O)c(C)c32)c1 [Trametinib] (partner 0.02 µM) is less than 0.5?
fulfilled

Is it true that relative viability reported for O=C(O)CCCCC(CCSCc1ccccc1)SCc1ccccc1 (stereo unspecified) [CPI-613] + C[C@]1(O)C[C@@H](c2nc(-c3ccc4ccc(-c5ccccc5)nc4c3)c3c(N)nccn32)C1 [Linsitinib] (partner 1 µM) is less than 0.5?
not fulfilled

* * *

tested on: NCI-H838; assay: relative viability (nuclei count vs DMSO), 5 days (fraction); higher = more cells survive; conditions: first compound 50 µM
Would you mind telling me the reported relative viability of each entry?
Respond numerically, and do not add a unit to the figure.

Given O=C(O)CCCCC(CCSCc1ccccc1)SCc1ccccc1 (stereo not given) [CPI-613] + C[C@]1(O)C[C@@H](c2nc(-c3ccc4ccc(-c5ccccc5)nc4c3)c3c(N)nccn32)C1 [Linsitinib] (partner 1 µM) , respond with its relative viability.
0.905

Given O=C(O)CCCCC(CCSCc1ccccc1)SCc1ccccc1 (stereo not given) [CPI-613] + CCNC(=O)c1noc(-c2cc(C(C)C)c(O)cc2O)c1-c1ccc(CN2CCOCC2)cc1 [Luminespib] (partner 0.01 µM) , respond with its relative viability.
0.24

Given O=C(O)CCCCC(CCSCc1ccccc1)SCc1ccccc1 (stereo not given) [CPI-613] + CC(=O)c1c(C)c2cnc(Nc3ccc(N4CCNCC4)cn3)nc2n(C2CCCC2)c1=O [Palbociclib] (partner 0.5 µM) , respond with its relative viability.
0.216

Given O=C(O)CCCCC(CCSCc1ccccc1)SCc1ccccc1 (stereo not given) [CPI-613] + Cc1cc(Nc2cc(N3CCN(C)CC3)nc(Sc3ccc(NC(=O)C4CC4)cc3)n2)n[nH]1 [Tozasertib] (partner 0.1 µM) , respond with its relative viability.
0.249

Given O=C(O)CCCCC(CCSCc1ccccc1)SCc1ccccc1 (stereo not given) [CPI-613] + O=C(CCCCCCC(=O)Nc1ccccc1)NO [Vorinostat] (partner 1 µM) , respond with its relative viability.
0.797

Given O=C(O)CCCCC(CCSCc1ccccc1)SCc1ccccc1 (stereo not given) [CPI-613] + N=C(N)NC(=N)NCCc1ccccc1 [Phenformin] (partner 250 µM) , respond with its relative viability.
0.558

Given O=C(O)CCCCC(CCSCc1ccccc1)SCc1ccccc1 (stereo not given) [CPI-613] + Nc1nc2[nH]cc(CCc3ccc(C(=O)N[C@@H](CCC(=O)O)C(=O)O)cc3)c2c(=O)[nH]1 [Pemetrexed] (partner 0.2 µM) , respond with its relative viability.
0.215

Given O=C(O)CCCCC(CCSCc1ccccc1)SCc1ccccc1 (stereo not given) [CPI-613] + COc1cc2c(Oc3ccc(NC(=O)C4(C(=O)Nc5ccc(F)cc5)CC4)cc3F)ccnc2cc1OCCCN1CCOCC1 [Foretinib] (partner 0.25 µM) , respond with its relative viability.
1.03

Given O=C(O)CCCCC(CCSCc1ccccc1)SCc1ccccc1 (stereo not given) [CPI-613] + NC(=O)Nc1cc(-c2cccc(F)c2)sc1C(=O)N[C@H]1CCCNC1 [AZD7762] (partner 0.2 µM) , respond with its relative viability.
0.893

Given O=C(O)CCCCC(CCSCc1ccccc1)SCc1ccccc1 (stereo not given) [CPI-613] + CS(=O)(=O)CCNCc1ccc(-c2ccc3ncnc(Nc4ccc(OCc5cccc(F)c5)c(Cl)c4)c3c2)o1 [Lapatinib] (partner 2 µM) , respond with its relative viability.
0.846
